Assay: Lipophilicity, log P of the compound
Type: physicochemical
Conditions: octanol/water
The entries below are paired with their reported logP.
Please reply with the value in numeric form only.

Study these solved cases before continuing.
{"molecule": "CCCCCCCCC(O)CN(CCO)CC(O)COC[C@H]1O[C@@H]2OC(C)(C)O[C@@H]2[C@H]2OC(C)(C)O[C@H]21 (mixture of isomers)", "value": 2.43}
{"molecule": "CCCCCCCCNCCO", "value": 2.55}
{"molecule": "CCCCCCCCCCCCC(O)CNCCO (configuration not stated)", "value": 4.69}
{"molecule": "CCCCCCCCCCCCCCNCCCN", "value": 4.88}
{"molecule": "CCCCCCCCCCCCNCCN", "value": 4.69}
{"molecule": "CCCCCCCCCCCCNCCCN", "value": 5.06}
{"molecule": "CCCCCCCCCCNCCN", "value": 2.71}
{"molecule": "CCCCCCCCCCCCN(CCO)C[C@H](O)COC[C@H]1O[C@@H]2OC(C)(C)O[C@@H]2[C@H]2OC(C)(C)O[C@H]21", "value": 4.22}
{"molecule": "CCCCCCCCCCCCN(CCO)CC(O)COC[C@H]1O[C@@H]2OC(C)(C)O[C@@H]2[C@H]2OC(C)(C)O[C@H]21 (mixture of isomers)", "value": 4.22}
{"molecule": "CCCCCCCCCCNCCCNCC(O)COC[C@H]1O[C@@H]2OC(C)(C)O[C@@H]2[C@H]2OC(C)(C)O[C@H]21 (mixture of isomers)", "value": 3.26}

Query: Any idea what logP was measured for CCCCCCCCCCNCCO ?
Response: 3.09

Query: Cool, now CCCCCCCCCCCCCCNCCO
Response: 4.76
